# experiment: physchem
# Type: physicochemical
# measurementSetup: aqueous buffer, thermodynamic from solid; sodium phosphate buffer 200 mM/pH 5.5; pH of supernatant 5.08; read-out: L-Lactate Salt of Compound of Formula (I) Concentration
# Description: Buffers were prepared using monobasic and dibasic salts of sodium phosphate in order to achieve the correct buffer concentrations and pH as follows: The pH of each buffer was the target pH±0.05. […] The appearance of each sample was recorded. […] Assay by UV: A calibration curve was prepared using the L-lactate salt of the compound of formula (I) dissolved in deionised water and covering the range 0 to 0.10 mg/ml. Absorbance was determined at 286 nm. […] All UV readings were taken in duplicate.
readoutName: solubility

I would be grateful if you could share the reported solubility for `CC(C)c1cc(C(=O)N2Cc3ccc(CN4CCN(C)CC4)cc3C2)c(O)cc1O.C[C@H](O)C(=O)O` .
≥ 94.8 mg/mL

====

# experiment: Solubility in deionised water, acetate, succinate and citrate buffers (Example 5)
# Type: physicochemical
# measurementSetup: succinate buffer, pH 5.3, aqueous buffer, thermodynamic from solid; 100 mM Succinate pH 5.5; pH 5.30; read-out: Solubility L-lactate salt of compound of formula (I)
readoutName: solubility (mg/mL)
Just the number in mg/mL, nothing appended.

Form field: reported solubility of `CC(C)c1cc(C(=O)N2Cc3ccc(CN4CCN(C)CC4)cc3C2)c(O)cc1O.C[C@H](O)C(=O)O`
89.2

====

# experiment: physchem
# Format: physicochemical
# measurementSetup: aqueous buffer, thermodynamic from solid; sodium phosphate buffer 50 mM/pH 5.0; pH of supernatant 5.13; read-out: L-Lactate Salt of Compound of Formula (I) Concentration
readoutName: solubility thermodynamic (mg/mL)
Give the value in mg/mL but do not write mg/mL after it.

Quick one: solubility thermodynamic for `CC(C)c1cc(C(=O)N2Cc3ccc(CN4CCN(C)CC4)cc3C2)c(O)cc1O.C[C@H](O)C(=O)O` ?
77.3

====

# experiment: Solubility in deionised water, acetate, succinate and citrate buffers (Example 5)
# Format: physicochemical
# measurementSetup: acetate buffer, aqueous buffer, thermodynamic from solid; 50 mM Acetate pH 5.5; pH 4.87; read-out: Solubility L-lactate salt of compound of formula (I)
readoutName: solubility
Please make sure the unit comes right after the number.

Suppose we examine the compound `CC(C)c1cc(C(=O)N2Cc3ccc(CN4CCN(C)CC4)cc3C2)c(O)cc1O.C[C@H](O)C(=O)O` ; what solubility value has been reported?
24.4 mg/mL

====

# experiment: physchem
# Format: physicochemical
# measurementSetup: aqueous buffer, thermodynamic from solid; sodium phosphate buffer 200 mM/pH 5.0 (fifth line of table); pH of supernatant 4.99; read-out: L-Lactate Salt of Compound of Formula (I) Concentration
# Procedure: Buffers were prepared using monobasic and dibasic salts of sodium phosphate in order to achieve the correct buffer concentrations and pH as follows: The pH of each buffer was the target pH±0.05. […] The appearance of each sample was recorded. […] Assay by UV: A calibration curve was prepared using the L-lactate salt of the compound of formula (I) dissolved in deionised water and covering the range 0 to 0.10 mg/ml. Absorbance was determined at 286 nm. […] All UV readings were taken in duplicate.
readoutName: solubility

Record request: solubility value, item `CC(C)c1cc(C(=O)N2Cc3ccc(CN4CCN(C)CC4)cc3C2)c(O)cc1O.C[C@H](O)C(=O)O`
≥ 95.7 mg/mL

Entry source: patent US20180169117A1
